Biological target: T1, human CLDN9 (human, UniProt O95484 1-217)
T1 construct: Expressed on 293T cells from human CLDN9/pCMV6-Entry (OriGene); Transfection was confirmed with an anti-FLAG antibody
T1 sequence: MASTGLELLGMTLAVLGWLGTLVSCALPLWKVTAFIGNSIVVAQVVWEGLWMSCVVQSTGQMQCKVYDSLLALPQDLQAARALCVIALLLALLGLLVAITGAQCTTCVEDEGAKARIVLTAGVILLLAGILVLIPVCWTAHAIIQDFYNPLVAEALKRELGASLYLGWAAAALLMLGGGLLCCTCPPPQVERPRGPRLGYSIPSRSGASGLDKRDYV
Assay: flow cytometry on transiently transfected 293T cells, 0.8-100 nM

{"columns": ["binder", "binding result"],
 "data": [
  ["humanized anti-CLDN6 antibody H1L3 (antibody, human IgG1, kappa, L234A L235A, V domains shown, Human IgG1 LALA heavy chain and human kappa light chain; also called H1L3 antibody; hH1 + hL3) VH: QVQLVQSGAEVKKPGASVKVSCKASGYTFTEYTMHWVRQAPGQGLEWMGGVNPNSGDTSYAQKFQGRVTITADTSTSTAYMELSSLRSEDTAVYYCARPGGYDVGYYAMDYWGQGTLVTVSS VL: DIQMTQSPSSLSASVGDRVTITCRASQDINNYLNWYQQKPGGAVKLLIYFTSRLHSGVPSRFSGSGSGTDYTLTISSLQPEDFATYYCQQGYPLPWTFGGGTKVEIKR", "binds"]
]}
